Test system: SK-MEL-5 melanoma
TEST_PROTOCOL: NCI tumour cell line growth inhibition, 48 h; in the data active = GI50 below about 0.43 µM; inactive = the rest
Possible outcomes: yes (1) (active), no (0) (inactive)

O=C(c1ccc2ccccc2c1)c1nc2cc(F)ccc2[n+]([O-])c1C(F)(F)F = no (0)
O=C(CC1(O)C(=O)Nc2ccc(F)cc21)c1ccc(C(=O)NCC2CCC3(CC2)OOC2(CCCCC2)OO3)cc1 (stereo not drawn) = no (0)
C=C1C(=O)O[C@H]2[C@H]1CC/C(Cn1cc(-c3ccc(N)cc3)nn1)=C\CC[C@@]1(C)O[C@@H]21 = no (0)
Clc1ccc(/C=C/c2ccc3ccccc3n2)cc1 = no (0)
COc1ccc(C2=NC(=O)NC2c2ccc(OC)cc2)cc1 (stereo not drawn) = no (0)
C=C(CN1CCc2c([nH]c3ccccc23)C1)c1ccc(C(=O)Nc2ccccc2N)cc1 = no (0)
CCCC1(CN2c3ccccc3Sc3ccc(Cl)cc32)CCN(CC)C1 (stereo not drawn) = no (0)
CCSc1ccc([C@@H]2[C@@H](O)C(=O)N2c2cc(OC)c(OC)c(OC)c2)cc1 = yes (1)

* * *

Listed compounds paired with reported TGI
Tested on: MDA-N
TEST_PROTOCOL: NCI tumour cell line growth inhibition, 48 h
MEASUREMENT_LABEL: TGI

O=C(/C=C1\Sc2ccccc2N=C1CC(=O)c1ccccc1)c1ccccc1 = > 100 µM
C/C(=N\NC(=S)N1CCC(N2CCCCC2)CC1)c1ccccn1 = 5.9 µM
O=C(Nc1cccc(F)c1)c1cc2ccc(O)cc2oc1=Nc1cccc(F)c1 = > 100 µM
CC1(C)CO[P@@](=S)(c2ccccn2)O[C@@H]1c1ccccc1 = > 100 µM
CN(C)N1C(=O)SCC(c2ccccc2)(c2ccccc2)C1=O = > 100 µM
N#CC1=C(N)N(/N=C/c2ccccc2)C(c2ccccc2)C1(C#N)C#N (centres undefined) = 30.5 µM
CO/N=C\c1ccc2c(c1)Sc1ccccc1O2 = > 100 µM
CC(C)(C)OC(=O)N1NC(c2ccccc2)CC1c1ccccc1 (centres undefined) = > 100 µM
COc1ccc(-c2c(-c3ccccc3)c(C)c3ccccn23)cc1 = > 100 µM

* * *

// values below are reported GI50
System: HS 578T breast
TEST_PROTOCOL: NCI tumour cell line growth inhibition, 48 h
MEASUREMENT_LABEL: GI50

O=C(NN1C(=O)CSC1c1cccc(Cl)c1)C(O)c1ccccc1 (stereo not given) = > 100 µM
COc1ccc(-c2c(C#N)c(N)nc(N3CCOCC3)c2C#N)cc1 = 17.5 µM
Cc1cn(-c2cccc(NC(=O)c3ccc(C)c(Nc4nccc(-c5cccnc5)n4)c3)c2)cn1 = 1.77 µM
CN(C)CCCOc1cccc(NC2=C(Cl)C(=O)C(Nc3cccc(OCCCN(C)C)c3)=C(Cl)C2=O)c1 = 2.11 µM
O=C(c1ccc2ccccc2c1)c1nc2cc(F)ccc2[n+]([O-])c1C(F)(F)F = 21.9 µM

* * *

Test system: LOX IMVI melanoma
TEST_PROTOCOL: NCI tumour cell line growth inhibition, 48 h
MEASUREMENT_LABEL: TGI

Nc1nc(N)c2cc(Sc3ccc4ccccc4c3)ccc2n1 = 1.93 µM
CC1(C)CC(=O)c2c(nc3c(ccc4ccccc43)c2-c2ccc(NC(=O)CCC(=O)Nc3ccc(-c4c5c(nc6c4ccc4ccccc46)CC(C)(C)CC5=O)cc3)cc2)C1 = > 100 µM
CN(C)CCCOc1cccc(NC2=C(Cl)C(=O)C(Nc3cccc(OCCCN(C)C)c3)=C(Cl)C2=O)c1 = 0.346 µM
CCOP(=O)(OCC)/C(C#N)=C/c1ccccn1 = > 100 µM
Cc1ccc(S(=O)(=O)CNC(=O)C(O)(O)C(F)(F)F)cc1 = > 100 µM
COc1ccc(-c2c(-c3ccccc3)c(C)c3ccccn23)cc1 = > 100 µM
O=C(NN1C(=O)CSC1c1cccc(Cl)c1)C(O)c1ccccc1 (stereo unspecified) = > 100 µM
Oc1ccc(/C=C/c2cccc(/C=C/c3ccc(O)c(O)c3)n2)cc1O = 21.7 µM
Cn1c(=O)n(C)c2cc(CNCCNc3ccnc4cc(Cl)ccc34)ccc21 = 30.1 µM
O=C1/C(=C\c2ccco2)Oc2ccccc21 = > 100 µM
O=c1nc2ccc([N+](=O)[O-])cc2[n+]([O-])[nH]1 = > 100 µM
FC(F)(F)c1ccc2c(c1)nc1n2C(c2c(Cl)cccc2Cl)SC1 (stereo unspecified) = > 100 µM
CCCCCCC(O)CC[C@H]1CCC[C@@H](C)N1 (stereo partly specified) = > 100 µM
CCOC(=O)NC(Nc1cc(Cl)ccc1OC)(C(F)(F)F)C(F)(F)F = > 100 µM
C[C@H]1C2Cc3cc(O)ccc3[C@@]1(C)CCN2CCc1ccc(N)cc1 = 28.2 µM
c1ccc(-c2nc3n(c2-c2ccc4c(c2)OCO4)CCC3)nc1 = > 25 µM
